Tested on: IFN induction in virus-stimulated THP1 cells
Experiment: Human cGAS cell assay, baculovirus-stimulated THP1-Dual cells, Lucia luciferase reporter (THP1(vir) IC50);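 note: IRF-dependent luminescence, 8 concentrations up to 10 µM in 1% DMSO, 0% = unstimulated cells, 100% = DMSO plus virus, counter assay stimulated with cGAMP downstream of cGAS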
Type: cell-based
Assay Conditions: Homo sapiens, THP-1; baculovirus-stimulated THP1-Dual cells, 18 h
Property Name: pIC50
By convention, pIC50 is the negative base-10 log of a molar concentration.

Task item: I have this compound here, COC(=O)[C@@H]1C[C@H](Oc2ncc(Cl)cc2[C@@]2(OC)CC(C)(C)S(=O)(=O)C[C@@H]2C)CN1c1nc(C(F)F)nc2c1oc1ccccc12 [Example P03] , and I need its recorded pIC50.
Reply: 6.69

Task item: I have this compound here, CNc1cccc(-c2cnc(O[C@H]3C[C@@H](C(=O)O)N(c4nc(C(F)F)nc5c4oc4ccccc45)C3)c([C@@]3(F)CCOC[C@@H]3C)c2)c1 [Example 6.03] , and I need its recorded pIC50.
Reply: 7.46

Task item: I have this compound here, C[C@H]1COCC[C@]1(F)c1cc(-c2cnn(C(F)F)c2)cnc1O[C@H]1C[C@@H](C(=O)O)N(c2nc(C(F)F)nc3c2oc2ccccc23)C1 [Example 6.01] , and I need its recorded pIC50.
Reply: 7.46

Task item: I have this compound here, O=C(O)[C@@H]1C[C@H](Oc2ncc(Cl)cc2C2(F)CCS(=O)(=O)CC2)CN1c1nc(C(F)(F)F)nc2c1oc1ccccc12 [Example 2.02] , and I need its recorded pIC50.
Reply: 6.27

Task item: I have this compound here, O=C(O)[C@@H]1C[C@H](Oc2ncc(Cl)cc2[C@]2(F)CCS(=O)(=O)C3(COC3)C2)CN1c1nc(C(F)F)nc2c1oc1ccccc12 [Example 1.20] , and I need its recorded pIC50.
Reply: 6.86

Task item: I have this compound here, O=C(O)[C@@H]1C[C@H](Oc2ncc(Br)cc2C2(F)CCS(=O)(=O)CC2)CN1c1nc(C(F)F)nc2c1oc1ccccc12 [Example 2.04] , and I need its recorded pIC50.
Reply: 6.20

Task item: I have this compound here, COc1cc(-c2cnc(O[C@H]3C[C@@H](C(=O)O)N(c4nc(C(F)F)nc5c4oc4ccccc45)C3)c([C@@]3(F)CCN(C(C)=O)C[C@@H]3C)c2)c(F)cn1 [Example 3.03] , and I need its recorded pIC50.
Reply: 7.74

Task item: I have this compound here, O=C(O)[C@@H]1C[C@H](Oc2ncc(Cl)cc2[C@@]2(F)CCS(=O)(=O)C3(COC3)C2)CN1c1nc(C(F)F)nc2c1oc1ccccc12 [Example 1.19] , and I need its recorded pIC50.
Reply: 6.25

Task item: I have this compound here, O=C(O)[C@@H]1C[C@H](Oc2ncc(Cl)cc2[C@@]2(F)CCN3C(=O)OC[C@H]3C2)CN1c1nc(C(F)F)nc2c1oc1ccccc12 [Example 2.13] , and I need its recorded pIC50.
Reply: 6.09

Task item: I have this compound here, C[C@H]1CS(=O)(=O)C(C)(C)C[C@@]1(F)c1cc(Cl)cnc1O[C@H]1C[C@@H](C(=O)O)N(c2nc(C(F)(F)F)nc3c2oc2ccccc23)C1 [Example 1.07] , and I need its recorded pIC50.
Reply: 6.67

Task item: I have this compound here, O=C(O)[C@@H]1C[C@H](Oc2ncc(Cl)cc2[C@]2(F)CCS(=O)(=O)C3(CCC3)C2)CN1c1nc(C(F)F)nc2c1oc1ccccc12 [Example 1.21] , and I need its recorded pIC50.
Reply: 6.90

Task item: I have this compound here, COc1cncc(-c2cnc(O[C@H]3C[C@@H](C(=O)O)N(c4nc(C(F)F)nc5c4oc4ccccc45)C3)c([C@@]3(F)CCOC[C@@H]3C)c2)c1 [Example 6.02] , and I need its recorded pIC50.
Reply: 8.30

Task item: I have this compound here, C#Cc1cnc(O[C@H]2C[C@@H](C(=O)O)N(c3nc(C(F)(F)F)nc4c3oc3ccccc34)C2)c(C23CCOCC2C3)c1 (some centres unmarked) [Example 4.01] , and I need its recorded pIC50.
Reply: 6.11
